Listed here: items and their measured change of melting temperature, mutant - wild type (higher = more stable).
B1: Q87L, Q93D82 (parent)
chain: MSTAIVTNVKHFGGMGSALRLSEAGHTVACHDESFKQKDELEAFAETYPQLKPMSEQEPAELIEAVTSAYGQVDVLVSNDIFAPEFQPIDKYAVEDYRGAVEALQIRPFALVNAVASQMKKRKSGHIIFITSATPFGPWKELSTYTSARAGACTLANALSKELGEYNIPVFAIGPNYLHSEDSPYFYPTEPWKTNPEHVAHVKKVTALQRLGTQKELGELVAFLASGSCDYLTGQVFWLAGGFPMIERWPGMPE

- Variants of: B1
- study_conditions: Rhizobium radiobacter; pH 7.7; Thermal; CD; Phosphate 5mM; structure 1PWX; whole UniProt chain shown
measurement_type: change of melting temperature, mutant - wild type (higher = more stable) (°C)

# mutation_id, recorded_number
rows = [
    ("Q87L", -2.5),
    ("E61K", 3.5),
    ("E165P", -7.5),
    ("M54F", -1.5),
    ("S160A", -0.5),
    ("A45K", 0.5),
    ("S228R", -0.5),
    ("Q37D", 0),
    ("S143V", -5.5),
    ("K91Q", -4),
    ("E61Q", 1.5),
]
